The reported measurements were obtained from the supplement of paper PMC9233669.

# Tested on: biotinyl-Val-oxazolone
# assay.explanation: self-aminoacylation, catalytic enhancement (BVO) (fold over background); higher = more active; k-Seq, kA / k0A0; sequences stand for … in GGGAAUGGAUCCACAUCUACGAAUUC…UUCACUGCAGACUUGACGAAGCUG
This sample holds only a part of the variants without activity.
property.measured: self-aminoacylation

INSERT INTO results (biosequence, assay_target, result_value) VALUES
  ('CCAUACUUCAAGCAAUCGAUC [Fam1B.1 aminoacylation ribozyme variant]', 'biotinyl-Val-oxazolone', 0.842),
  ('AUUACCGGGGUCAUCGAGUGA [Fam2.1 aminoacylation ribozyme variant]', 'biotinyl-Val-oxazolone', 3.67),
  ('UUUAACCUAGGUCAUCGGGUG [Fam2.2 aminoacylation ribozyme variant]', 'biotinyl-Val-oxazolone', 4.48),
  ('ACCCACCUAGGUCAUCGGGUG [Fam2.2 aminoacylation ribozyme variant]', 'biotinyl-Val-oxazolone', 5.64),
  ('AAGUUUGCUAAUAGUCGAUAG [Fam3.1 aminoacylation ribozyme variant]', 'biotinyl-Val-oxazolone', 0.846),
  ('AAGAUUGCUAAUAGUCGCAUG [Fam3.1 aminoacylation ribozyme variant]', 'biotinyl-Val-oxazolone', 1.39),
  ('AUUACCGUGGGCAUCGAGUGA [Fam2.1 aminoacylation ribozyme variant]', 'biotinyl-Val-oxazolone', 3.22),
  ('AUGCUUGCUAAUAGUCGCAAG [Fam3.1 aminoacylation ribozyme variant]', 'biotinyl-Val-oxazolone', 1.32),
  ('AAGUUUGCUAAUAGGCGUAAG [Fam3.1 aminoacylation ribozyme variant]', 'biotinyl-Val-oxazolone', 0.735);

---

# Tested on: biotinyl-Val-oxazolone
# assay.explanation: self-aminoacylation, catalytic enhancement (BVO) (fold over background); higher = more active; k-Seq, kA / k0A0; sequences stand for … in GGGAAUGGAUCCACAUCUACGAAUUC…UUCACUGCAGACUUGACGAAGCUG
Variants at the floor of the assay were thinned out.
property.measured: self-aminoacylation

INSERT INTO measurements (biosequence, property_measured, result_value) VALUES
  ('AUUAUCGUGGUCAUCGAGUGA [Fam2.1 aminoacylation ribozyme variant]', 'self-aminoacylation', 3.25),
  ('CUACUUCAAACAAGCGCUCUG [Fam1A.1 aminoacylation ribozyme variant]', 'self-aminoacylation', 0.86),
  ('UCACACUUCAAGCAAUCGGUG [Fam1B.1 aminoacylation ribozyme variant]', 'self-aminoacylation', 3.95),
  ('AUUACGCUGGUCAUCGACUGA [Fam2.1 aminoacylation ribozyme variant]', 'self-aminoacylation', 1.24);

---

# Test system: biotinyl-Leu-oxazolone
# assay.explanation: self-aminoacylation, catalytic enhancement (BLO) (fold over background); higher = more active; k-Seq, kA / k0A0; sequences stand for … in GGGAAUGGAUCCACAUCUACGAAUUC…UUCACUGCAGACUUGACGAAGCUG
Fewer inactive variants are shown than the library holds.
Recorded measurements of self-aminoacylation, one per entry
property.measured: self-aminoacylation

INSERT INTO assay_data (biosequence, assay_target, result_value) VALUES
  ('AAGUUUACUAAGAGUCGCAAG [Fam3.1 aminoacylation ribozyme variant]', 'biotinyl-Leu-oxazolone', 1.36),
  ('AAGUUUGCUAAUCGUCGGAAG [Fam3.1 aminoacylation ribozyme variant]', 'biotinyl-Leu-oxazolone', 0.799),
  ('AUUACCCGGGUCAUGGAGUGA [Fam2.1 aminoacylation ribozyme variant]', 'biotinyl-Leu-oxazolone', 4.59),
  ('AUCCACCUAGGUCAACGGGUG [Fam2.2 aminoacylation ribozyme variant]', 'biotinyl-Leu-oxazolone', 4.15),
  ('CUACUUCAAACAAGUGGUCUG [Fam1A.1 aminoacylation ribozyme variant]', 'biotinyl-Leu-oxazolone', 0.885);

---

# Tested on: biotinyl-Leu-oxazolone
# assay.explanation: self-aminoacylation, catalytic enhancement (BLO) (fold over background); higher = more active; k-Seq, kA / k0A0; sequences stand for … in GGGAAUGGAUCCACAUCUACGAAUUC…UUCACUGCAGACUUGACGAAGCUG
This sample holds only a part of the variants without activity.
property.measured: self-aminoacylation

INSERT INTO measurements (biosequence, result_value) VALUES
  ('CUACUUCAAAAAAUCGGUCUG [Fam1A.1 aminoacylation ribozyme variant]', 0.92),
  ('CCACACUUCAACCCAUCGGUC [Fam1B.1 aminoacylation ribozyme variant]', 1.24),
  ('AUUUCCCGGGUCAUCGAGUGA [Fam2.1 aminoacylation ribozyme variant]', 6.51),
  ('AUUACCCUGGUCAUGGAGUUA [Fam2.1 aminoacylation ribozyme variant]', 0.899);

---

# Tested on: biotinyl-Phe-oxazolone
# assay.explanation: self-aminoacylation, catalytic enhancement (BFO) (fold over background); higher = more active; k-Seq, kA / k0A0; sequences stand for … in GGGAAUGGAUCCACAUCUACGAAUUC…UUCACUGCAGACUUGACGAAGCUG
This sample holds only a part of the variants without activity.
property.measured: self-aminoacylation

INSERT INTO results (biosequence, property_measured, result_value) VALUES
  ('AUUACCGUGGUCAUCGAGUGC [Fam2.1 aminoacylation ribozyme variant]', 'self-aminoacylation', 2.57),
  ('ACUGACCUAGGUCAUCGGGUG [Fam2.2 aminoacylation ribozyme variant]', 'self-aminoacylation', 32.9),
  ('AUUUACCUAGGUCAUCGGGUG [Fam2.2 aminoacylation ribozyme variant]', 'self-aminoacylation', 235),
  ('GAGUUUGCUAAUAGUCGCAAA [Fam3.1 aminoacylation ribozyme variant]', 'self-aminoacylation', 3.15),
  ('CAGUUUGCUAACAGUCGCAAG [Fam3.1 aminoacylation ribozyme variant]', 'self-aminoacylation', 2),
  ('AUUCACCUAGGUCACCCGGUG [Fam2.2 aminoacylation ribozyme variant]', 'self-aminoacylation', 37.3),
  ('UUCACCCUGGUCAUCGAGUGA [Fam2.1 aminoacylation ribozyme variant]', 'self-aminoacylation', 13.2),
  ('CUACUUCUAACAAUCGGACUG [Fam1A.1 aminoacylation ribozyme variant]', 'self-aminoacylation', 0.602),
  ('GUUACCCUGGUCAUCGAGAGA [Fam2.1 aminoacylation ribozyme variant]', 'self-aminoacylation', 2.82);

---

# System: biotinyl-Ile-oxazolone
# assay.explanation: self-aminoacylation, catalytic enhancement (BIO) (fold over background); higher = more active; k-Seq, kA / k0A0; sequences stand for … in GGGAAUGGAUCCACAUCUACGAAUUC…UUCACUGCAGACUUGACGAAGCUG
This sample holds only a part of the variants without activity.
property.measured: self-aminoacylation

INSERT INTO measurements (biosequence, assay_target, result_value) VALUES
  ('CUACUUCAGAUAAUCGGUCUG [Fam1A.1 aminoacylation ribozyme variant]', 'biotinyl-Ile-oxazolone', 0.643),
  ('CCACAAUUCAAGCAAUCGGAC [Fam1B.1 aminoacylation ribozyme variant]', 'biotinyl-Ile-oxazolone', 1.15),
  ('AAGUAUGCCAAUAGUCGCAAG [Fam3.1 aminoacylation ribozyme variant]', 'biotinyl-Ile-oxazolone', 2.21),
  ('AAGUUUACUAAGAGUCGCAAG [Fam3.1 aminoacylation ribozyme variant]', 'biotinyl-Ile-oxazolone', 1.47),
  ('CUAAUUCAUACAAUCGGUCUG [Fam1A.1 aminoacylation ribozyme variant]', 'biotinyl-Ile-oxazolone', 0.767),
  ('AGGUUUGCUAAUAGCCGCAAG [Fam3.1 aminoacylation ribozyme variant]', 'biotinyl-Ile-oxazolone', 1.2),
  ('CUACUCCAAAGAAUCGGUCUG [Fam1A.1 aminoacylation ribozyme variant]', 'biotinyl-Ile-oxazolone', 0.927),
  ('AACUUUGCUAAUUGUCGCAAG [Fam3.1 aminoacylation ribozyme variant]', 'biotinyl-Ile-oxazolone', 2.78),
  ('AUUCACCCAGGUCAUCGGGUG [Fam2.2 aminoacylation ribozyme variant]', 'biotinyl-Ile-oxazolone', 3.26),
  ('CUAUUUCAAACAAUCGGUCGG [Fam1A.1 aminoacylation ribozyme variant]', 'biotinyl-Ile-oxazolone', 0.851),
  ('CCACACUUCGGGCAAUCGGUC [Fam1B.1 aminoacylation ribozyme variant]', 'biotinyl-Ile-oxazolone', 2.1),
  ('CCACACUUCAAGCAAUAGUUC [Fam1B.1 aminoacylation ribozyme variant]', 'biotinyl-Ile-oxazolone', 0.703),
  ('CCACAGUUCAAGCAAUAGGUC [Fam1B.1 aminoacylation ribozyme variant]', 'biotinyl-Ile-oxazolone', 0.794),
  ('AUUUAGCUAGGUCAUCGGGUG [Fam2.2 aminoacylation ribozyme variant]', 'biotinyl-Ile-oxazolone', 3.83),
  ('AUUACCCUGGUCAUGGGGUGA [Fam2.1 aminoacylation ribozyme variant]', 'biotinyl-Ile-oxazolone', 4.02),
  ('AAGUUUGCUAAUAGUAACAAG [Fam3.1 aminoacylation ribozyme variant]', 'biotinyl-Ile-oxazolone', 1.19),
  ('AUUCCCCUGGUCAUCGAGUGC [Fam2.1 aminoacylation ribozyme variant]', 'biotinyl-Ile-oxazolone', 1.36),
  ('CUACUUCAAUCAAUCUGUCUG [Fam1A.1 aminoacylation ribozyme variant]', 'biotinyl-Ile-oxazolone', 0.599);
